Where do these numbers come from? They come from patent US20090227600A1.

# pIC50 values compiled below
Tested Target: HCV RNA Polymerase, recombinant NS5B with C-terminal 21 amino acid deletion, genotype 1a strain H77 (Hepatitis C virus genotype 1a)
Construct: fused on or other part: C-terminal 6His-tag
Sequence (P27958 2421-3011 V2599I, form open): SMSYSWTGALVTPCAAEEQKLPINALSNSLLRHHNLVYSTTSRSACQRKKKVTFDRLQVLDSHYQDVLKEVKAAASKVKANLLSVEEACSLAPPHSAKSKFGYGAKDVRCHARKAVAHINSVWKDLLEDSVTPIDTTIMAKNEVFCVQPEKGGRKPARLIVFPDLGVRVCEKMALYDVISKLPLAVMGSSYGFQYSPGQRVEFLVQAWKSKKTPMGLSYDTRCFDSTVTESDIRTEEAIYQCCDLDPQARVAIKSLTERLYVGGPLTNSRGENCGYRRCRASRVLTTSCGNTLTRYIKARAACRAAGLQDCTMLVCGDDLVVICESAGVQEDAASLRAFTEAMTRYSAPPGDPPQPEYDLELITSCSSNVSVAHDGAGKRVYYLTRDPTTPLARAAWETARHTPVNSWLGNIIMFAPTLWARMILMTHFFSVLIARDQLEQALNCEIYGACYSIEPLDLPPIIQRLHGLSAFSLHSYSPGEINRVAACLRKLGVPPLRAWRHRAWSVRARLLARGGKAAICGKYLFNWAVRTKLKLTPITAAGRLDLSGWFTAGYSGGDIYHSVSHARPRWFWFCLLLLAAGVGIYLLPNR
Experimental Details: In vitro HCV RNA-dependent RNA polymerase inhibition assay, genotype 1a C-terminally truncated (delta21) enzyme
Conditions Used: genotype 1a delta21 NS5B enzyme; read-out: IC50 in delta-21 1a enzyme inhibition assay
pIC50: −log10 of the molar value.

[
  {
    "Molecule": "COc1cc(C(=O)N2[C@@H](c3ncc(C)s3)[C@@H](c3cnccn3)C[C@@]2(Cc2ccsn2)C(=O)O)ccc1C(C)(C)C (single isomer, unassigned; enantiomer a) [Example 6]",
    "pIC50": "> 6.82"
  }
]

In plain terms, COc1cc(C(=O)N2[C@@H](c3cncs3)[C@@H](c3cnccn3)C[C@@]2(CCSC)C(=O)O)ccc1C(C)(C)C (racemic) [Compound E, reference compound] has a documented pIC50 of < 6.00

In plain terms, COc1cc(C(=O)N2[C@@H](c3nccs3)[C@@H](c3cnccn3)C[C@@]2(Cn2cccn2)C(=O)O)ccc1C(C)(C)C (single isomer, unassigned; enantiomer a) [Example 12] has a documented pIC50 of > 6.82

In plain terms, COc1cc(C(=O)N2[C@@H](c3ncc(C)s3)[C@@H](c3cnccn3)C[C@@]2(Cc2nccs2)C(=O)O)ccc1C(C)(C)C (single isomer, unassigned; enantiomer a) [Example 14] has a documented pIC50 of > 6.82

In plain terms, COc1cc(C(=O)N2[C@@H](c3ncc(C)s3)[C@@H](c3cnccn3)C[C@@]2(Cc2ccsn2)C(=O)O)ccc1C(C)(C)C (racemic) [Example 5] has a documented pIC50 of > 6.82

In plain terms, COc1cc(C(=O)N2[C@@H](c3nccs3)[C@@H](c3cnccn3)C[C@@]2(Cc2cscn2)C(=O)O)ccc1C(C)(C)C (single isomer, unassigned; enantiomer a) [Example 2] has a documented pIC50 of > 6.82

In plain terms, COc1cc(C(=O)N2[C@@H](c3nccs3)[C@@H](c3cnccn3)C[C@@]2(Cn2cccn2)C(=O)O)ccc1C(C)(C)C (racemic) [Example 11] has a documented pIC50 of > 6.82
